# Method notes: Oral bioavailability in human
# Type: ADME, organism-based
# Condition parameters: in vivo
Observable: bioavailability
Answer format: number, then unit.

Molecule: CCC(CC)O[C@@H]1C=C(C(=O)O)C[C@H](N)[C@H]1NC(C)=O [OSELTAMIVIR CARBOXYLATE]
bioavailability: 5%

Consider the additional molecule presented here.
Could you share which bioavailability value was measured for CCOC(=O)C1=C[C@@H](OC(CC)CC)[C@H](NC(C)=O)[C@@H](N)C1 [OSELTAMIVIR] ?
80%
